experiment: Solubility in phosphate buffer at pH 4.5; type: physicochemical
readout name: solubility

Before answering, review these 5 worked examples.
In [3]: df
Out[3]:
                               smiles_entry  readout_name       result
0  Cl.NCCCCOc1ccc(-c2cc(-c3ccccc3)c3c(n2)-c2ccccc2NC(=O)C3)cc1Cl    solubility    < 5 µg/mL
1  CN1CCN(CCCCOc2ccc(-c3cc(-c4cccc(Cl)c4)nc4c3CC(=O)Nc3ccccc3-4)cc2)CC1.Cl.Cl    solubility  > 500 µg/mL
2  CN1CCN(CCCCOc2ccc(-c3cc(-c4ccccc4)c4c(n3)-c3ccccc3NC(=O)C4)cc2Cl)CC1.Cl.Cl    solubility    < 5 µg/mL
3  Cl.NCCCCOc1ccc2c(c1)NC(=O)Cc1c(-c3ccccc3)cc(-c3cccc(Cl)c3)nc1-2    solubility    < 5 µg/mL
4  Cl.NCCCCOc1ccc(-c2cc(-c3cccc(Cl)c3)nc3c2CC(=O)Nc2ccccc2-3)cc1    solubility    < 5 µg/mL

Output solubility of Cl.O=C1Cc2c(-c3ccccc3)cc(-c3cccc(Cl)c3)nc2-c2ccc(OCCCCN3CCOCC3)cc2N1
> 500 µg/mL

Provide only the value of recorded solubility for Cl.O=C1Cc2c(-c3ccccc3)cc(-c3ccc(OCCCCN4CCOCC4)c(Cl)c3)nc2-c2ccccc2N1
5 µg/mL

Give the value of solubility reported for the following: Cl.O=C1Cc2c(-c3ccc(OCCCCN4CCOCC4)cc3)cc(-c3cccc(Cl)c3)nc2-c2ccccc2N1
> 500 µg/mL

Item CN1CCN(CCCCOc2ccc3c(c2)NC(=O)Cc2c(-c4ccccc4)cc(-c4cccc(Cl)c4)nc2-3)CC1.Cl.Cl : provide solubility
> 500 µg/mL

Reference source: ChEMBL document CHEMBL1144614
